system: CRL-7250; test: Cytotoxic Profiling of Annotated Libraries Using Quantitative High-Throughput Screening (AID 1296008); details: Five cell lines viability, CellTiter-Glo ATP luminescence, 48-72 h; stronger effect = lower value; note: % is set by controls: 0 for no effect and ±100 for the full control effect
Results filed as inconclusive are left out. Where a SMILES comes first, the peptide text is derived from it. [ ]: non-standard residue; d: D form. dPhe(4-Cl) = N[C@H](Cc1ccc(Cl)cc1)C(=O)O; d2Nal = N[C@H](Cc1ccc2ccccc2c1)C(=O)O; dCit = NC(=O)NCCC[C@@H](N)C(=O)O; d3Pal = N[C@H](Cc1cccnc1)C(=O)O
Would you kindly list max response for each of these compounds?
Write it as a number; the unit % goes unstated.

What value of max response has been recorded for this entry: COC(=O)C1=CO[C@@H](O[C@@H]2O[C@H](CO)[C@@H](O)[C@H](O)[C@H]2O)C2C1C(=O)C[C@H]2C (some centres undefined)
-1.68

Which max response value is on record for COC(=O)c1ccnc(-c2cc(C(=O)NCCc3ccccc3)ccn2)c1 ?
-12.7

// lookup max response for CC(C)C(NC(=O)c1ccc2ccccc2n1)C(=O)NC(CC(=O)O)C(=O)COc1c(F)cccc1F (centres undefined)
-6.89

Name the reported max response value associated with the compound COc1ccc(CNC(=O)c2sc3nc(C)cc(C)c3c2N)cc1
-0.266

Fill in the blank: the reported max response of Cc1ccc(F)cc1C(=O)Nc1ccc(C(=O)N2Cc3cccn3Cc3ccccc32)c(Cl)c1 is ____.
-11.2

For COc1ccc(-n2[nH]c(=O)c3[nH]c4cc(Cl)ccc4c(=O)c3c2=O)c(C)c1 , what is its reported max response?
1.23

GET /values?readout=max response&item= O=C(O)C(O[C@@H]1O[C@H](CO[C@@H]2O[C@H](CO)[C@@H](O)[C@H](O)[C@H]2O)[C@@H](O)[C@H](O)[C@H]1O)c1ccccc1 (some centres undefined)
-5.65

Which max response value belongs to CC(C)(O[C@@H]1O[C@H](CO)[C@@H](O)[C@H](O)[C@H]1O)C(OC(=O)/C=C\c1ccc(O)cc1)C(=O)OCc1ccc(O[C@@H]2O[C@H](CO)[C@@H](O)[C@H](O)[C@H]2O)cc1 (some centres undefined) ?
-12.2

Quick one: max response for COc1ccc(Cl)c(Nc2nc3ccccc3nc2NS(=O)(=O)c2cccc(NC(=O)C(C)(C)N)c2)c1 ?
-18.5

I have this compound here, CC(=O)N[C@H](Cc1ccc2ccccc2c1)C(=O)N[C@H](Cc1ccc(Cl)cc1)C(=O)N[C@H](Cc1cccnc1)C(=O)N[C@@H](CO)C(=O)N[C@@H](Cc1ccc(O)cc1)C(=O)N[C@H](CCCNC(N)=O)C(=O)N[C@@H](CC(C)C)C(=O)N[C@@H](CCCN=C(N)N)C(=O)N1CCC[C@H]1C(=O)N[C@H](C)C(N)=O (Ac-[d2Nal][dPhe(4-Cl)][d3Pal]SY[dCit]LRP[dA]-NH2) , and I need its recorded max response.
-7.92

# max response lookup, item CC(C)[C@H]1CC[C@@]2(O)COC(=O)[C@H]2[C@@H]1/C=C(\CO)C(=O)O
-25.6

Given C=CC1C(OC2OC(CO)C(O)C(O)C2O)OC=C(C(=O)OC)C1CC1CC(=O)CC(CCc2ccc(O)cc2)O1 (centres undefined) , state its recorded max response.
3.27

# input compound: Cc1ccc(C(=O)N(CCCN)C(c2oc3cc(Cl)ccc3c(=O)c2Cc2ccccc2)C(C)C)cc1 (centres undefined) ; wanted: its max response
-42.6

Can you share its max response? I mean this compound: Cc1[nH]nc(C(F)(F)F)c1Cc1sc2c(c1C(=O)N1C[C@](C)(O)CO1)c(=O)n(C)c(=O)n2C(C)C
-0.426
